molecular target: Heat shock protein HSP 90-alpha (Homo sapiens, UniProt P07900)
Lab note - cut at 80 nM for IC50: 1 if strictly below, -1 if not.

samplesmiles=COC(=O)Cn1nnc(-c2cc(C(C)C)c(O)cc2O)c1-c1ccc2c(c1)OCCO2 assignedlabel=1
samplesmiles=CCc1cc(-c2nnn(CC(=O)OC)c2-c2ccc3c(c2)OCCO3)c(O)cc1O assignedlabel=-1
samplesmiles=CC(C)c1cc(-c2nn[nH]c2-c2ccc(S(C)(=O)=O)cc2)c(O)cc1O assignedlabel=-1
samplesmiles=CCOC(=O)Cn1nnc(-c2cc(C(C)C)c(O)cc2O)c1-c1cccc(NS(C)(=O)=O)c1 assignedlabel=1
samplesmiles=COC(=O)Cn1nnc(-c2cc(C(C)C)c(O)cc2O)c1-c1ccc(OCCN(C)C)cc1 assignedlabel=1
samplesmiles=CC(C)c1cc(-c2nnn(CC(=O)O)c2-c2ccc3c(c2)OCCO3)c(O)cc1O assignedlabel=-1
samplesmiles=COC(=O)Cn1nnc(-c2cc(C(C)C)c(O)cc2O)c1-c1ccc(CN2CCCCC2)cc1 assignedlabel=1
samplesmiles=COC(=O)Cn1nnc(-c2cc(C(C)C)c(O)cc2O)c1-c1ccc(O)c(O)c1 assignedlabel=-1

Lab log: compare recorded IC50 with 80 nM; is it strictly lower for COC(=O)Cn1nnc(-c2cc(C(C)C)c(O)cc2O)c1-c1cccc(S(C)(=O)=O)c1 ?
1

Note, next up: CC(C)c1cc(-c2nnn(CC(N)=O)c2-c2ccc3c(c2)OCCO3)c(O)cc1O
-1

Note, next up: COC(=O)Cn1nnc(-c2cc(C(C)C)c(O)cc2O)c1-c1ccc(S(C)(=O)=O)cc1
1

Note, next up: CC(C)c1cc(-c2nnn(CC(=O)O)c2-c2ccc(S(C)(=O)=O)cc2)c(O)cc1O
-1

Note, next up: CCOC(=O)Cn1nnc(-c2cc(C(C)C)c(O)cc2O)c1-c1ccc(S(C)(=O)=O)cc1
1

Note, next up: CC(C)c1cc(-c2nnn(CC(N)=O)c2-c2ccc(S(C)(=O)=O)cc2)c(O)cc1O
-1
